# EXPERIMENTAL TARGET: HLA-A*02:02
# ASSAY PROCEDURE: IEDB peptide-MHC binding, purified MHC/competitive/radioactivity; filed as Kd, often an IC50 or EC50 that approximates it; bounds were set here for any values at or beyond the usual limits of such assays
# STUDY CONDITIONS: source organism: SARS coronavirus Tor2
QUANTITY NAME: pKd
Scale explanation: pKd corresponds to minus log10 of a concentration expressed in moles per litre.

Recorded pKd, per entry:
| MONOMER SEQUENCE | EXPERIMENTAL TARGET | pKd |
| --- | --- | --- |
| LLFNKVTLA | HLA-A*02:02 | 9.02 |
| NMLRIMASL | HLA-A*02:02 | 8.47 |
| VMCGGSLYV | HLA-A*02:02 | 9.22 |
| VVFLHVTYV | HLA-A*02:02 | 8.11 |
| SLCSCICTV | HLA-A*02:02 | 8.40 |
| ALSGVFCGV | HLA-A*02:02 | 8.94 |

// next entry
So what's the measured pKd for this one? `TLDAANHSI`
7.03
